- TARGET DESC: METTL3/METTL14 (Homo sapiens)
- Sequence (Q86U44 whole entry, species assumed): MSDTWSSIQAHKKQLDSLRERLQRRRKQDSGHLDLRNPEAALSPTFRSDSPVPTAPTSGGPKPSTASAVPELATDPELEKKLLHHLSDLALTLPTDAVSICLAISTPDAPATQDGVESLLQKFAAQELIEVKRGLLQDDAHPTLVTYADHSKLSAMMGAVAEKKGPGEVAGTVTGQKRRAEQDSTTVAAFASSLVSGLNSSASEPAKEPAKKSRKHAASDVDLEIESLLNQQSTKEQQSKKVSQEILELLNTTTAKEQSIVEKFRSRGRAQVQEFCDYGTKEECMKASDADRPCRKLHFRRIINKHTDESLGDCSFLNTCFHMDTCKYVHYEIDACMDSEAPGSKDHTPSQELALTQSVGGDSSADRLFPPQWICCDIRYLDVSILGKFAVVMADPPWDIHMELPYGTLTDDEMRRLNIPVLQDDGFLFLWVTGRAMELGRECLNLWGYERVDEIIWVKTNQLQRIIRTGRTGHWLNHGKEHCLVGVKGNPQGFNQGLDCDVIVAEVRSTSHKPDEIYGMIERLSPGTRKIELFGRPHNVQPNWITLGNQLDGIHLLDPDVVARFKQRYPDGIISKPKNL
- Sequence (Q9HCE5 whole entry partner, species assumed): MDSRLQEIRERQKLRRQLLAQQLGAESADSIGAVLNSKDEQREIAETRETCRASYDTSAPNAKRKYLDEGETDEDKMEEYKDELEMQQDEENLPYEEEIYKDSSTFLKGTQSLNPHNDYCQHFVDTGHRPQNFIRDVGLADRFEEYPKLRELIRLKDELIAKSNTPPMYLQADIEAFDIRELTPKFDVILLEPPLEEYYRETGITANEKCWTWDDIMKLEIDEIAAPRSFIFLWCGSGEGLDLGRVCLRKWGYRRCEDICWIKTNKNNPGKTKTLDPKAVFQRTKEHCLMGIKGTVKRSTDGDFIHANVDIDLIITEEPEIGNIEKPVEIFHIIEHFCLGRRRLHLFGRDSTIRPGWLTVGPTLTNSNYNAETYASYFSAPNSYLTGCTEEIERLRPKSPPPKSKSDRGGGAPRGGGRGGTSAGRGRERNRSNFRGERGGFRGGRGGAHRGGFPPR
- ASSAY OVERVIEW: METTL3-14 standard enzyme assay (3H-SAM flashplate scintillation)
- RUN CONDITIONS: METTL3/METTL14 2.5 nM, RNA 100 nM, 3H-SAM 100 nM, 30 min
pIC50: −log10 of the molar value.
Could you please report measured pIC50 for the items listed next?

Quick check: pIC50 of Cc1cc(NCCN(C)CCCc2ccccc2)c2ccc(OCc3cncc(-n4ccc5c(N)ncnc54)c3)cc2n1 [Compound I-98] ?
7.00 to 8.00

Same read-out for CNc1ccc2ccc(CCc3cncc(-n4cc(Cl)c5c(N)ncnc54)c3)cc2n1 [Compound I-51] ?
7.00 to 8.00

Same read-out for CNc1ccc2ccc(OCc3cncc(-n4cc(C(C)C5CC5)c5c(N)ncnc54)c3)cc2n1 (stereo not shown) [Compound I-120] ?
> 8.00

Same read-out for Cn1ccc(-c2cn(-c3cncc(COC(=O)Nc4cccc(Br)n4)c3)c3ncnc(N)c23)n1 [Compound I-223] ?
< 6.00

Data provenance: patent US20220372040A1
